The reported numbers originate from paper PMC6155600.

# target_or_test_system: 5-lipoxygenase (5-LO) (Homo sapiens, UniProt P09917)
# Construct: gene ALOX5
# Sequence (P09917 whole entry): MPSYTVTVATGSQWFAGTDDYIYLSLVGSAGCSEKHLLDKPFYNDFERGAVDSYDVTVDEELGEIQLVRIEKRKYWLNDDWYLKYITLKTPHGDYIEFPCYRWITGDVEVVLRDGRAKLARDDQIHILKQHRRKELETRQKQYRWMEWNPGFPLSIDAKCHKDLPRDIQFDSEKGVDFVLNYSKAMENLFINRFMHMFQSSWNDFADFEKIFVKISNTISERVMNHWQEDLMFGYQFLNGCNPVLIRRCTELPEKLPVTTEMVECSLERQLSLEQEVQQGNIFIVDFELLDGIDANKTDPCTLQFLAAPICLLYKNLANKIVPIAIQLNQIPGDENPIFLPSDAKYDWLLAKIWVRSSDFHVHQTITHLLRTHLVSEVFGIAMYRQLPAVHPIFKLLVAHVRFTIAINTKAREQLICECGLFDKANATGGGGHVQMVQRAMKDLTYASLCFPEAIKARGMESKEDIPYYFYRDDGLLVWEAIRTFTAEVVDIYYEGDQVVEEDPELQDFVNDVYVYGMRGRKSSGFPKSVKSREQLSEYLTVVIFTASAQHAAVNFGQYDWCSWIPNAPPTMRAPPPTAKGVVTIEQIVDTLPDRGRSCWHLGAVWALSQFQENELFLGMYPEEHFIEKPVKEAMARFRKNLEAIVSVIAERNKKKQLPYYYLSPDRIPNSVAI
# experimental_details: purified recombinant 5-LO activity assay, arachidonic acid substrate, HPLC product analysis
# Assay type: biochemical
reported_endpoint: pIC50
Notebook: values listed as pIC50 are -log10 of the concentration (mol/L).

Q: Requested read-out pIC50, target or system 5-lipoxygenase (5-LO) (Homo sapiens, UniProt P09917), entry `COc1ccc(CN(O)C(N)=O)cc1OCCCNC(=O)Nc1ccc(OC(F)(F)F)cc1`
Result: 5.89
